# System: SF-268
# assay_summary: NCI tumour cell line growth inhibition, 48 h
Activity calls are given as the source filed them. Rule as the data show it: active = GI50 up to about 1.1 µM and inactive = higher.
GI50: recorded values

Nc1nc(N)c2ncn(Cc3c(Cl)cccc3Cl)c2n1 ... > 100 µM (inactive)
[O-][S+](Cc1ccccn1)c1nc2ccccc2nc1-c1ccccc1 (stereo unspecified) ... 66.1 µM (inactive)
COc1ccc(NC(=O)/C(=N/NC(N)=S)C2C(=O)NC(=S)NC2=O)c(OC)c1 ... > 100 µM (inactive)
O=c1[nH]nc(-c2ccccc2)n1/N=C/c1cccc([N+](=O)[O-])c1 ... > 100 µM (inactive)
CC1=C[C@H]2C[C@@]3(C)O[C@@H]([C@]4(C)CC[C@H]([C@@H](C)C(=O)O)OO4)CC3C(C)(C)[C@H]2CC1 (stereo partly specified) ... 2.17 µM (inactive)
O=C(O)C(Br)C(Br)c1ccccc1[N+](=O)[O-] (stereo unspecified) ... > 100 µM (inactive)
COc1cc2cc[n+](C)c(Cc3ccccc3)c2cc1OC ... > 100 µM (inactive)
CC(=O)CC(=O)N1CCSC1=S ... > 10 µM (inactive)
COc1cccc2nc3cc(C)c(C)cc3nc12 ... > 100 µM (inactive)
COC(=O)C1=C(C)NC(C)=C(C(=O)OC)C1c1ccc(N=O)cc1 ... 22.1 µM (inactive)

Query: Kindly indicate its recorded GI50. Item: C=C1CC2CC(=O)C(O)C(C1)C2 (stereo unspecified)
Result: > 100 µM (inactive)

Query: Quickly give me recorded GI50 for O=C1CC(n2cccc2)c2cc(Br)sc21 (stereo unspecified)
Result: > 100 µM (inactive)

Query: Specify GI50 for CC(C(=O)Oc1ccc2ccccc2c1-c1c(O)ccc2ccccc12)c1ccccc1 (stereo unspecified) and stop.
Result: > 10 µM (inactive)

Query: Report GI50 for CC(C)CN(CC(C)C)C(=O)C1CCCC[C@@H]1C(=O)O (stereo partly specified)
Result: > 100 µM (inactive)

Query: Hello, please tell me recorded GI50 for this one: CCc1c(O)c(O)c(C(C)=O)c2c(O)c(-c3c(C)cc4c(CC)c(O)c(O)c(C(C)=O)c4c3O)c(C)cc12
Result: 11 µM (inactive)

Query: Consider the compound CC(=O)Nc1ccc2c(c1)nc1c3ccccc3ccn21 . State its measured GI50.
Result: > 100 µM (inactive)

Query: # return recorded GI50 for input Cc1ccc(S(=O)(=O)n2c3c(c4ccccc42)CCN2CCC(Br)C[C@@H]32)cc1 (stereo partly specified)
Result: 16.1 µM (inactive)
